Target: human recombinant soluble guanylate cyclase enzyme α1β1 (Homo sapiens, UniProt Q02108+Q02153)
Construct: purchased Enzo Life Sciences ALX-201-177
Sequence (Q02108 whole entry): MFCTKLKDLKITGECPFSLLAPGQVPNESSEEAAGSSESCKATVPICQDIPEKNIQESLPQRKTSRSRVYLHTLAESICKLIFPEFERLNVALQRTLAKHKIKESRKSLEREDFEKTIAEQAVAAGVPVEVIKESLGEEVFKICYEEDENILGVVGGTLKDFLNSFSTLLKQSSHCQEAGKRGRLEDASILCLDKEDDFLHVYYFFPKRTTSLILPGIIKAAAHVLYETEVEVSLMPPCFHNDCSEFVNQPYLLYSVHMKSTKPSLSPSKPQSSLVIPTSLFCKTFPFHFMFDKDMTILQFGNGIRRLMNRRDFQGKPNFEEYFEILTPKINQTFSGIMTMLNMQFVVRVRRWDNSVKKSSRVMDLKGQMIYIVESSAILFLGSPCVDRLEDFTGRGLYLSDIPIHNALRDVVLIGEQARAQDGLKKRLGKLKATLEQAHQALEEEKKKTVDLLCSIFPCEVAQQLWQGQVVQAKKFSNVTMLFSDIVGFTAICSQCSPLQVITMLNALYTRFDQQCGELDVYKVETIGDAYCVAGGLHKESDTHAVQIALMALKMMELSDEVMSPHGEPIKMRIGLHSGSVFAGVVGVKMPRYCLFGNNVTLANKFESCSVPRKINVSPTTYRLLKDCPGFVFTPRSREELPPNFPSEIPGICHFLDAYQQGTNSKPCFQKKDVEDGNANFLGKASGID
Sequence (Q02153 whole entry): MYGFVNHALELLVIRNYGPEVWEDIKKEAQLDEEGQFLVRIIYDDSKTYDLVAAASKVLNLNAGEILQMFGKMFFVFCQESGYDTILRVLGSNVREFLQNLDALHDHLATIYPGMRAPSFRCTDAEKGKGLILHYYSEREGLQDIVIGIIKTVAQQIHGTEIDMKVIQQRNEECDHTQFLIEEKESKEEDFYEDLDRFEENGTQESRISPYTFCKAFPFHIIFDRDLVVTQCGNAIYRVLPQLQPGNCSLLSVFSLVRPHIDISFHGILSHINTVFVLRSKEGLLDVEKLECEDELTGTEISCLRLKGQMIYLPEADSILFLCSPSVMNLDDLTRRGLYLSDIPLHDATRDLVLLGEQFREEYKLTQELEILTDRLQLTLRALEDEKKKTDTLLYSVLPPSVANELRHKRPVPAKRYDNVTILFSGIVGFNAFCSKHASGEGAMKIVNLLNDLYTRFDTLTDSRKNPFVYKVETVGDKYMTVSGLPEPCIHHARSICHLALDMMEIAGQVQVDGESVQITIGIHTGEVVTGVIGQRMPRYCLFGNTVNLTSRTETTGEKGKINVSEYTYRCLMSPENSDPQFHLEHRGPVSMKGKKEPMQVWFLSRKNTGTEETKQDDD
Test: Purified human recombinant sGC α1β1 enzyme assay in the presence of DETA-NONOate (cGMP HTRF)
Type: biochemical
Details: 30 uM DETA NONOate; 50% of maximal response of 30 uM Compound Y; read-out: sGC_Enz_HTRF_a1b1 EC50/IC50 Abs (Norm) (nM) Binned
assay readout: EC50

Fc1ccccc1Cn1nc(-c2ncc(N3CCOCC3)cn2)cc1-c1ccon1; ≤ 1000 nM
O=C(Cc1c[nH]nc1O)Nc1ccnc(-c2cc(-c3ccon3)n(Cc3ccccc3F)n2)n1; ≤ 1000 nM
CC(=O)c1cc(-c2ncc(F)c(O)n2)nn1Cc1cccc(F)c1F; ≤ 1000 nM

Could I get EC50 for every one of these entries?
1. Cn1c(=O)c(CC(N)=O)cn1-c1nc(-c2cc(-c3ccon3)n(Cc3ccccc3F)n2)ncc1F
2. Oc1nnc2n1CCN(c1nc(-c3cc(-c4ccon4)n(Cc4ccccc4F)n3)ncc1F)C2
3. O=S1(=O)Cc2cnc(-c3cc(-c4ccon4)n(Cc4ccccc4F)n3)nc2C1
4. NC(=O)C(=O)Nc1ccnc(-c2cc(-c3ccon3)n(Cc3ccccc3F)n2)n1
5. C[C@](N)(CNc1nc(-c2cc(-c3ccon3)n(Cc3ccccc3F)n2)ncc1F)C(F)(F)F

**Result**
["≤ 1000 nM", "100 to 1000 nM", "≤ 1000 nM", "≤ 1000 nM", "100 to 1000 nM"]

Could I get EC50 for every one of these entries?
1. O=C(O)Cc1c[nH]n(-c2nc(-c3cc(-c4ccon4)n(Cc4ccccc4F)n3)ncc2F)c1=O
2. CC(=O)c1cc(-c2ncc(F)c(N3CCS(=O)(=O)CC3)n2)nn1Cc1ccccc1F

**Result**
["≤ 1000 nM", "≤ 1000 nM"]
